test system: KMS-11; test: Antiproliferative activity against human KMS-11 cells assessed as inhibition of cell proliferation measured after 6 days by CCK8 assay; assay type: functional, cell-based; conditions: KMS-11, 144 h
measure_name: IC50
Answer with the number, then the unit.

IC50 lookup needed for Cc1cc(CN2CCC(N)CC2)cc(C)c1-c1ncn(C)c1-c1ccc(C#N)c2ccccc12 , thanks. 8.43 µM

---

Parameter IC50, tested on Histone-lysine N-methyltransferase NSD2 (Homo sapiens, UniProt O96028), listed per item.
Sequence (O96028 whole entry): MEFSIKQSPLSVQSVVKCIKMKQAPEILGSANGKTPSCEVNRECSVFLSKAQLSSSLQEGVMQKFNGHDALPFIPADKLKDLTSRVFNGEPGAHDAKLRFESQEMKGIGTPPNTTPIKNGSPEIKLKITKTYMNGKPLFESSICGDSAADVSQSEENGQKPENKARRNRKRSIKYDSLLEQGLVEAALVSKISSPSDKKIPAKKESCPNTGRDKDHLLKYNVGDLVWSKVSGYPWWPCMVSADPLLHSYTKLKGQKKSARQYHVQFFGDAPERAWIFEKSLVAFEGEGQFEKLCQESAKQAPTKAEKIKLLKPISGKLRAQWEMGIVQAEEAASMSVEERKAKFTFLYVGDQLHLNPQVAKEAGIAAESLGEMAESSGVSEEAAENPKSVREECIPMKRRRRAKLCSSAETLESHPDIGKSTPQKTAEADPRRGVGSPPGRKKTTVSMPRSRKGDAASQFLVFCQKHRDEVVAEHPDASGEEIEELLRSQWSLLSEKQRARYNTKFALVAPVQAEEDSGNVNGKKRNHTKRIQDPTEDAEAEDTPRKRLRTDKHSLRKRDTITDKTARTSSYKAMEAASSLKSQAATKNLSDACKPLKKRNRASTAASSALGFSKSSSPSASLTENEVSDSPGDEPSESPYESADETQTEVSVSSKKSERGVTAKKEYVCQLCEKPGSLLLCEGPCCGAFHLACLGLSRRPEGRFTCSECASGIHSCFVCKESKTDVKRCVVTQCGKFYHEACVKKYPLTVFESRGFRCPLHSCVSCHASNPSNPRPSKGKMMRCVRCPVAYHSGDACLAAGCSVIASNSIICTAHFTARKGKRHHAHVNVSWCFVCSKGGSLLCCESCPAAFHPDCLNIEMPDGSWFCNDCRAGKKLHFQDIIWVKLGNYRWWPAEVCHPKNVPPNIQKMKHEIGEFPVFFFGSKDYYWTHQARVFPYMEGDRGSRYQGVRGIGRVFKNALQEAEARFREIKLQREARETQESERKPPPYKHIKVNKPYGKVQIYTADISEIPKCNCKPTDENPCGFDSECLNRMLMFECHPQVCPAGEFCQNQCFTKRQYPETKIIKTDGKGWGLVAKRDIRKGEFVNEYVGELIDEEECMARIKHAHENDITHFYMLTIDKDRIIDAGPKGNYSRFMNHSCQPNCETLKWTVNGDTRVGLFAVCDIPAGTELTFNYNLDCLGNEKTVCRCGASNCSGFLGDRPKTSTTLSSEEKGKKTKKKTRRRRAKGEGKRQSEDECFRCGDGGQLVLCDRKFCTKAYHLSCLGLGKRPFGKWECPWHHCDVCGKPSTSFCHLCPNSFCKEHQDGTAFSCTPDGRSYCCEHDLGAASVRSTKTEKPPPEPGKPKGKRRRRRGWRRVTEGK
Answers are plain numbers, in µM.

INSERT INTO results (query_smiles, recorded_value) VALUES
  ('Cc1cc(CN)ccc1-c1ncn(C)c1-c1ccc(C#N)cc1', 4.68);

Now consider a different compound.
Request - read-out IC50 | tested on Histone-lysine N-methyltransferase NSD2 (Homo sapiens, UniProt O96028) | compound Cc1cc(CN2CCCCC2)cc(C)c1-c1ncn(C)c1-c1ccc(C#N)c2ccccc12 1.49

This collection of values is drawn from ChEMBL document CHEMBL5120900.
